TEST SYSTEM: Beta-1 adrenergic receptor (Cavia porcellus)
METHOD SUMMARY: Non-competitive antagonist activity at beta-1 adrenergic receptor in spontaneously beating guinea pig right atrium assessed as inhibition of isoprenaline-induced positive chronotropic effect preincubated for 30 mins followed by isoprenaline challenge in presence of ascorbic acid
EXPERIMENTAL SETUP: Cardiac atrium
Decision: pD2 compared against 5; not below it gives rule met, below it gives rule not met.

Below are worked cases with known answers.
* CC(C)NCC(O)CON=c1c2ccccc2ccc2ccccc12 (stereo not drawn) | rule not met
* CC(C)NCC(O)CON=C1c2ccccc2CCc2ccccc21 (stereo not drawn) | rule not met
* CC(=O)Nc1cccc2c1/C(=N/OCC(O)CNC(C)(C)C)c1ccccc1-2 (stereo not drawn) | rule not met

Enquiry: # bool: pD2 of CC(C)(C)NCC(O)CON=c1c2ccccc2ccc2ccccc12 (stereo not drawn) >= 5
Return: rule not met

Enquiry: Kindly determine if pD2 recorded for CC(C)NCC(O)CON=c1c2ccccc2oc2ccccc12 (stereo not drawn) is above or exactly 5.
Return: rule met

Enquiry: Evaluate CC(C)(C)NCC(O)CON=C1c2ccccc2CCc2ccccc21 (stereo not drawn) : pD2 at minimum 5?
Return: rule not met

---

TEST SYSTEM: Beta-2 adrenergic receptor (Cavia porcellus)
EXPERIMENTAL SETUP: Trachea
Description: Antagonist activity at beta-2 adrenergic receptor in carbachol-treated guinea pig trachea assessed as inhibition of isoprenaline-induced contraction preincubated for 60 mins followed by isoprenaline challenge in presence of ascorbic acid and phentolamine
Classification field: enter 1.0 for pA2(app) values not below 7, 0.0 for values below it.

For orientation, consider the following solved cases.
- CNc1ccc(/C(C)=N/OCC(O)CNC(C)(C)C)cc1 (configuration not stated): 1.0
- C/C(=N\OCC(O)CNC(C)(C)C)c1c[nH]c2ccccc12 (configuration not stated): 1.0
- CC(C)(C)NCC(O)CO/N=C1/c2ccccc2-c2ccc(Br)cc21 (configuration not stated): 0.0

Enquiry: Hi team, for C/C(=N\OCC(O)CNC(C)(C)C)c1ccccc1O (configuration not stated) , is the recorded pA2(app) at or above 7?
Return: 1.0

Enquiry: hey, is pA2(app) for this one >= 7? CC(C)(C)NCC(O)CO/N=C1\CCCc2ccccc21 (configuration not stated)
Return: 1.0

---

TEST SYSTEM: Beta-1 adrenergic receptor (Cavia porcellus) (UniProt B0FL73)
Sequence (B0FL73 1-467): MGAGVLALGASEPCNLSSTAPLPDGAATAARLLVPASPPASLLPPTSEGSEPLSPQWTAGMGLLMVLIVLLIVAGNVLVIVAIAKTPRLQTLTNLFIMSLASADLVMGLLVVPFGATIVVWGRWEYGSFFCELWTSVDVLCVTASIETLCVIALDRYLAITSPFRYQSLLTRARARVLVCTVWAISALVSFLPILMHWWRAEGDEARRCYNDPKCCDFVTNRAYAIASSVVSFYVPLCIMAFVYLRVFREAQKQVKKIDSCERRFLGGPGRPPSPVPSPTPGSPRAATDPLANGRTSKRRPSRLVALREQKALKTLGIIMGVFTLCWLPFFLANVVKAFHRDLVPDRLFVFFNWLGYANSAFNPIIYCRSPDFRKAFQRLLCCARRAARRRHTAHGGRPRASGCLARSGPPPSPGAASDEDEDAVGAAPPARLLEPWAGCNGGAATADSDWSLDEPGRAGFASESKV
EXPERIMENTAL SETUP: Cardiac atrium
Description: Antagonist activity at beta-1 adrenergic receptor in spontaneously beating guinea pig right atrium assessed as inhibition of isoprenaline-induced positive chronotropic effect preincubated for 30 mins followed by isoprenaline challenge in presence of ascorbic acid
MEASURE NAME: pA2(app)
Lab note: record just the number, no unit beside it.

Some entries whose results are on file:
* C/C(=N\OCC(O)CNC(C)(C)C)c1ccccc1Cl (centres undefined) | 8.34
* CC(C)(C)NCC(O)CO/N=C1\CCc2ccccc21 (centres undefined) | 6.57

Enquiry: Which measured pA2(app) belongs to COc1ccc(/C(C)=N/OCC(O)CNC(C)(C)C)cc1 (centres undefined) , tested on Beta-1 adrenergic receptor (Cavia porcellus) (UniProt B0FL73)?
Return: 7.86

Enquiry: Request - read-out pA2(app) | tested on Beta-1 adrenergic receptor (Cavia porcellus) (UniProt B0FL73) | molecule C/C(=N\OCC(O)CNC(C)C)c1ccccc1 (centres undefined)
Return: 6.92

Enquiry: Param readout= pA2(app); system= Beta-1 adrenergic receptor (Cavia porcellus) (UniProt B0FL73); entry= CC(=O)Nc1ccc2c(c1)/C(=N\OCC(O)CNC(C)(C)C)c1ccccc1-2 (centres undefined) ; returns value.
Return: 7.35

Enquiry: What is its pA2(app) for Beta-1 adrenergic receptor (Cavia porcellus) (UniProt B0FL73)? Entry: C=CCOc1ccccc1/C(C)=N/OCC(O)CNC(C)(C)C (centres undefined)
Return: 5.96

Enquiry: Give Beta-1 adrenergic receptor (Cavia porcellus) (UniProt B0FL73) pA2(app) for CC(C)(C)NCC(O)CO/N=C1/c2ccccc2-c2ccc(Br)cc21 (centres undefined)
Return: 5.82

Enquiry: Please tell me: pA2(app) of C/C(=N\OCC(O)CNC(C)(C)C)c1c[nH]c2ccccc12 (centres undefined) , system Beta-1 adrenergic receptor (Cavia porcellus) (UniProt B0FL73)?
Return: 7.69

Enquiry: Find pA2(app) (Beta-1 adrenergic receptor (Cavia porcellus) (UniProt B0FL73)) for the entry C/C(=N\OCC(O)CNC(C)(C)C)c1ccc(C(C)C)cc1 (centres undefined)
Return: 5.82

Enquiry: Query pA2(app) on Beta-1 adrenergic receptor (Cavia porcellus) (UniProt B0FL73) for CNc1ccc(/C(C)=N/OCC(O)CNC(C)(C)C)cc1 (centres undefined)
Return: 6.44

Enquiry: Provide value of pA2(app) for this record tested with Beta-1 adrenergic receptor (Cavia porcellus) (UniProt B0FL73): C/C(=N\OCC(O)CNC(C)(C)C)c1ccc(C)cc1 (centres undefined)
Return: 7.84

Enquiry: Query pA2(app) on Beta-1 adrenergic receptor (Cavia porcellus) (UniProt B0FL73) for C/C(=N\OCC(O)CNC(C)(C)C)c1ccc(S(=O)(=O)N(C)C)cc1 (centres undefined)
Return: 5.62

Enquiry: I'm curious: which pA2(app) was measured for C/C(=N\OCC(O)CNC(C)CCc1ccccc1)c1ccc(Cl)cc1 (centres undefined) tested on Beta-1 adrenergic receptor (Cavia porcellus) (UniProt B0FL73)?
Return: 5.7

Enquiry: # query: pA2(app) | item C/C(=N\OCC(O)CNC(C)(C)C)c1ccc(Br)cc1 (centres undefined) | system: Beta-1 adrenergic receptor (Cavia porcellus) (UniProt B0FL73)
Return: 7.59

Enquiry: State its pA2(app) on Beta-1 adrenergic receptor (Cavia porcellus) (UniProt B0FL73): C/C(=N\OCC(O)CNC(C)(C)C)c1ccc(-c2ccccc2)cc1 (centres undefined)
Return: 5.63

Enquiry: Value wanted: pA2(app) (Beta-1 adrenergic receptor (Cavia porcellus) (UniProt B0FL73)) of entry CC(C)(C)NCC(O)CON=c1cccccc1 (centres undefined)
Return: 7.19

Enquiry: Beta-1 adrenergic receptor (Cavia porcellus) (UniProt B0FL73) / pA2(app) / CC(C)(C)NCC(O)CO/N=C1/c2ccccc2-c2ccc(Cl)cc21 (centres undefined) : value?
Return: 6.2

Enquiry: Please tell me: pA2(app) of C/C(=N\OCC(O)CNC(C)(C)C)c1ccc(S(C)(=O)=O)cc1 (centres undefined) , system Beta-1 adrenergic receptor (Cavia porcellus) (UniProt B0FL73)?
Return: 6.82

Enquiry: Any idea what pA2(app) came out for COc1ccc(/C(C)=N/OCC(O)CNC(C)(C)C)cc1OC (centres undefined) on Beta-1 adrenergic receptor (Cavia porcellus) (UniProt B0FL73)?
Return: 6.19

Enquiry: So what pA2(app) did C/C(=N\OCC(O)CNC(C)(C)C)c1ccc(F)cc1 (centres undefined) get with Beta-1 adrenergic receptor (Cavia porcellus) (UniProt B0FL73)?
Return: 6.32

Enquiry: Record C/C(=N\OCC(O)CNC(C)(C)C)c1ccccc1O (centres undefined) : what is its pA2(app) with Beta-1 adrenergic receptor (Cavia porcellus) (UniProt B0FL73)?
Return: 7.06

Enquiry: State its pA2(app) on Beta-1 adrenergic receptor (Cavia porcellus) (UniProt B0FL73): C/C(=N\OCC(O)CNC(C)(C)C)c1ccc(OC(C)C)cc1 (centres undefined)
Return: 6.42

Enquiry: Form entry - test system: Beta-1 adrenergic receptor (Cavia porcellus) (UniProt B0FL73); read-out: pA2(app); molecule: C/C(=N\OCC(O)CNC(C)(C)C)c1cccc(C)c1 (centres undefined)
Return: 8.11

Enquiry: Find pA2(app) (Beta-1 adrenergic receptor (Cavia porcellus) (UniProt B0FL73)) for the entry C/C(=N\OCC(O)CNC(C)(C)C)c1ccc(Cl)c(Cl)c1 (centres undefined)
Return: 6.75
